Where these numbers come from: PubChem BioAssay (NCI)

tested on: MALME-3M melanoma; experiment: NCI-60 one-dose screen, 48 h (100 = growth as untreated, 0 = no growth, -100 = all killed); conditions: 10 µM unless noted
About 83,000 compounds went through this panel and 20% of them were active in at least one assay; those are over-represented in the sample as a whole.
Observable: growth (%)
All answers are understood in %, so give the number only.

Below, 4 molecules whose answers are already recorded.
| Molecule | Observable | Numeric value |
| --- | --- | --- |
| CC(C)c1nc2ccccc2n1CC(=O)N/N=C/c1cccc(O)c1 | growth | 108 |
| CCCCCCCCCCCCNC(=O)N[C@H](C(=O)N[C@H]1/C=C/OCCNC(=O)/C=C/[C@H](C(C)C)NC1=O)C(C)C | growth | 71 |
| COc1cc2ccc(C(C)=O)cc2cc1OC | growth | 107 |
| O=C(/C=C/c1cn(-c2ccccc2)nc1-c1ccccc1)OCc1cn(-c2cccc([N+](=O)[O-])c2)nn1 | growth | 97.9 |

Task: Quick one: give measured growth for Cc1ccc(Nc2cccc3ccccc23)cc1
Output: 94.2

Task: Quick one: give measured growth for CCCCCCCCCCCCCCCC1=NC(C)(C)CN1C(C)C
Output: -49

Task: Quick one: give measured growth for O=c1c2cc(Br)cc(Br)c2nc(-c2ccc(Cl)cc2)n1/N=C/c1cccc(F)c1
Output: 63.3

Task: Quick one: give measured growth for CCN(C(=O)CCl)C(C)(C)C(SSSC(c1ccc(Cl)cc1)C(C)(C)N(CC)C(=O)CCl)c1ccc(Cl)cc1 (stereo not drawn)
Output: 28.9

Task: Quick one: give measured growth for O/N=C1\c2ccccc2-c2ccc(Br)cc21
Output: 103

Task: Quick one: give measured growth for CN(C)CCCN1c2ccccc2CCc2ccccc21
Output: 151

Task: Quick one: give measured growth for N#CCCn1cnc2c(N)ncnc21
Output: 125

Task: Quick one: give measured growth for COC1(OC)C2(Cl)CCC1(Cl)C(Cl)=C2Cl
Output: 99.4

Task: Quick one: give measured growth for O=S1(=O)NCCN1CCNc1nccc(-c2c(-c3cccc(O)c3)nc3sccn23)n1
Output: 4.99

Task: Quick one: give measured growth for Cc1cc2nc(CN)[nH]c2cc1C
Output: 104

Task: Quick one: give measured growth for CCNC(=O)c1ccc2c(c1)nc(-c1ccc(Cl)cc1)n2-c1cc(C(C)(C)C)[nH]n1
Output: 34.9

Task: Quick one: give measured growth for Cc1cc(C#Cc2ccc(C(C)(C)C)cc2)ccc1-n1c(/C=C/c2c(Cl)cccc2Cl)nc2ccccc2c1=O
Output: 116

Task: Quick one: give measured growth for c1ccc(-c2ccc(-c3ccccc3)[nH]2)cc1
Output: 96.4

Task: Quick one: give measured growth for Cc1ccsc1C(=O)CC(=O)C(F)(F)C(F)(F)C(F)(F)F
Output: 105
